- Tested on: NCI-H23
- TEST_NAME: relative viability (nuclei count vs DMSO), 5 days (fraction); higher = more cells survive
- CONDITIONS: first compound 8 µM

MOLECULE | TEST_SYSTEM | relative viability
O=c1[nH]c2ccccc2n1C1CCN(CCCC(c2ccc(F)cc2)c2ccc(F)cc2)CC1 [Pimozide] + Nc1ncn([C@H]2C[C@H](O)[C@@H](CO)O2)c(=O)n1 [Decitabine] (partner 2 µM) | NCI-H23 | 0.325
O=c1[nH]c2ccccc2n1C1CCN(CCCC(c2ccc(F)cc2)c2ccc(F)cc2)CC1 [Pimozide] + CC(C)C[C@H](NC(=O)[C@H](Cc1ccccc1)NC(=O)c1cnccn1)B(O)O [Bortezomib] (partner 0.002 µM) | NCI-H23 | 0.908
O=c1[nH]c2ccccc2n1C1CCN(CCCC(c2ccc(F)cc2)c2ccc(F)cc2)CC1 [Pimozide] + N=C(N)NC(=N)NCCc1ccccc1 [Phenformin] (partner 250 µM) | NCI-H23 | 0.79
